These measurements were taken from PubChem BioAssay (NCI).

# maps each entry to its growth
- Test system: COLO 205 colon
- EXPERIMENTAL DETAILS: NCI-60 one-dose screen, 48 h (100 = growth as untreated, 0 = no growth, -100 = all killed)
- ASSAY CONTEXT: 10 µM unless noted
Compounds without any hit were thinned out: in the full panel of roughly 83,000, 20% have a hit.
Kindly provide the numeric value in % only, without the unit symbol.

# example entries with known answers
| COMPOUND STRUCTURE | MEASURED ENDPOINT | REPORTED MEASUREMENT |
| --- | --- | --- |
| CN(C)Cc1ccccn1 | growth | 117 |
| COC(=O)c1ccccc1C(=O)c1c(C)cc(C)cc1C | growth | 104 |

Q: Which growth value belongs to CC(=O)NNC(=S)/N=C\C(C(=O)c1ccccc1)=C(/O)c1ccccc1 ?
Ans: 108

###

- Tested on: OVCAR-5 ovarian
- EXPERIMENTAL DETAILS: NCI-60 one-dose screen, 48 h (100 = growth as untreated, 0 = no growth, -100 = all killed)
- ASSAY CONTEXT: 10 µM unless noted
The panel holds about 83,000 compounds, 20% with a hit somewhere; the sample as a whole holds those more often.
# maps each entry to its growth
Kindly provide the numeric value in % only, without the unit symbol.

| COMPOUND | growth [%] |
| --- | --- |
| CN(C)c1ncnc2c1cnn2C | 97.5 |

Q: Which growth value belongs to CCc1ccccc1C(=O)N(CC)CC ?
Ans: 99.4

Q: Which growth value belongs to C(=C\c1ccncc1)/c1ccncc1 ?
Ans: 114

###

- Test system: MCF7 breast
- EXPERIMENTAL DETAILS: NCI-60 one-dose screen, 48 h (100 = growth as untreated, 0 = no growth, -100 = all killed)
- ASSAY CONTEXT: 10 µM unless noted
About 83,000 compounds went through this panel and 20% of them were active in at least one assay; those are over-represented in the sample as a whole. Calls of active or inactive are those of the source. The calls were made as follows: active = growth percent below 10; inactive = the rest.
# maps each entry to its growth

| MOLECULE | TEST TARGET | growth |
| --- | --- | --- |
| CCNC(=O)Oc1ccc[nH]c1=O | MCF7 breast | 91.5% (inactive) |
| O=C(O)CC1=CCCCC1 | MCF7 breast | 96.7% (inactive) |
| CCOS(=O)(=O)c1ccc([N+](=O)[O-])cc1 | MCF7 breast | 103% (inactive) |
| FC(F)(F)c1cc(NC2=NCCN=C(Nc3cc(C(F)(F)F)cc(C(F)(F)F)c3)SS2)cc(C(F)(F)F)c1 | MCF7 breast | 31.6% (inactive) |
| Nc1cccc2cccc(O)c12 | MCF7 breast | 79.9% (inactive) |
| CCN1CCCC(N2c3ccccc3Sc3ccccc32)C1 (stereo not drawn) | MCF7 breast | 105% (inactive) |
| CCOC(=O)c1ccc(C(C)(C)C)cc1 | MCF7 breast | 104% (inactive) |
| Cc1onc(-c2c(F)cccc2Cl)c1-c1ncc(-c2ccc(Br)cc2)o1 | MCF7 breast | 20.9% (inactive) |

Q: Which growth value belongs to Cc1ccc(Cc2ccc(C)cc2)cc1 ?
Ans: 99.4% (inactive)

Q: Which growth value belongs to Cc1c(Cl)cccc1N=C=S ?
Ans: 97.5% (inactive)

Q: Which growth value belongs to CCCc1cccc(CCC)c1NC(=O)Nc1cc(Cl)cc(Cl)c1 ?
Ans: 99.1% (inactive)

Q: Which growth value belongs to CC(=O)/C(C)=N\OC(=O)Nc1ccccc1 ?
Ans: 93.5% (inactive)

Q: Which growth value belongs to CCOC(=O)c1ccc(Nc2sc(C(=O)c3ccc(Br)cc3)c(N)c2C#N)cc1 ?
Ans: 9% (active)

###

# maps each entry to its growth
- System: SF-268 CNS
- EXPERIMENTAL DETAILS: NCI-60 one-dose screen, 48 h (100 = growth as untreated, 0 = no growth, -100 = all killed)
- ASSAY CONTEXT: 10 µM unless noted
The panel holds about 83,000 compounds, 20% with a hit somewhere; the sample as a whole holds those more often.
Kindly provide the numeric value in % only, without the unit symbol.

# example entries with known answers
| COMPOUND STRUCTURE | growth, % |
| --- | --- |
| O=[n+]1ccn([O-])c2ccccc21 | 95.8 |
| Cc1cccc(-[n+]2noc(N)n2)c1 | 81.9 |
| CCCCCCCCCCCCCCCCCCSC(=N)N | 60.8 |

Please examine the following record next.
Q: Which growth value belongs to C=C1C(=O)C2CCN1CC2 ?
Ans: 102

###

- Tested on: COLO 205 colon
- EXPERIMENTAL DETAILS: NCI-60 one-dose screen, 48 h
- ASSAY CONTEXT: 10 µM unless noted
The panel holds about 83,000 compounds, 20% with a hit somewhere; the sample as a whole holds those more often. The source made the active and inactive calls. How the source made its calls: active means growth percent below 10; inactive means the rest.
Field 'call' accepts TRUE (active), FALSE (inactive)

Completed entries (count: 3):
| COMPOUND | CLASS LABEL |
| --- | --- |
| Cc1ccc(S(=O)(=O)NC(=O)NCCSSCCNC(=O)NS(=O)(=O)c2ccc(C)cc2)cc1 | FALSE |
| CCN(C(C)=O)c1ccc([N+](=O)[O-])cc1 | FALSE |
| O=Cc1c(O)c2ccccc2[nH]c1=O | FALSE |

Q: Which outcome was assigned to C=CCOc1ccc(Cl)cc1Cl in this test?
Ans: FALSE

Q: Which outcome was assigned to O=C(c1ccccc1)c1ccc(-c2ccc(O)cc2)cc1 in this test?
Ans: FALSE

Q: Which outcome was assigned to C=C1SC(=Nc2c(C)cccc2C)N(c2nc(Cl)nc(Cl)n2)C12CCCCC2 in this test?
Ans: FALSE

Q: Which outcome was assigned to CN=S(=O)(OCCCCCOS(=O)(=NC)c1ccc(C)cc1)c1ccc(C)cc1 (stereo not drawn) in this test?
Ans: FALSE

Q: Which outcome was assigned to COC1OC(C(COC(C)=O)OC(C)=O)C(OC(C)=O)C(OC(C)=O)C1OC(C)=O (stereo not drawn) in this test?
Ans: FALSE

Q: Which outcome was assigned to CC(=O)Nc1ccc(/C=C2\SC(=S)N(/C=C(\C(C)=O)C(N)=O)C2=O)cc1 in this test?
Ans: FALSE

Q: Which outcome was assigned to CS(=O)(=O)c1ccc(/C=C\C(=O)O)cc1 in this test?
Ans: FALSE

Q: Which outcome was assigned to CCNC(=O)OCCc1c2ccccc2nc2ccccc12 in this test?
Ans: FALSE

Q: Which outcome was assigned to Cc1nc(O)cc(=O)[nH]1 in this test?
Ans: FALSE

Q: Which outcome was assigned to Clc1ccc(C(SCc2ccccc2)SCc2ccccc2)cc1 in this test?
Ans: FALSE

Q: Which outcome was assigned to N#Cc1ccc(OC(=O)Nc2cc(Cl)cc(Cl)c2)cc1 in this test?
Ans: TRUE

Q: Which outcome was assigned to OCC1OC(n2ccc3c2ncn2ncnc32)C(O)C1O (stereo not drawn) in this test?
Ans: FALSE

###

- System: SK-OV-3 ovarian
- EXPERIMENTAL DETAILS: NCI-60 one-dose screen, 48 h (100 = growth as untreated, 0 = no growth, -100 = all killed)
- ASSAY CONTEXT: 10 µM unless noted
Compounds without any hit were thinned out: in the full panel of roughly 83,000, 20% have a hit.
# maps each entry to its growth
Kindly provide the numeric value in % only, without the unit symbol.

# example entries with known answers
| COMPOUND STRUCTURE | growth (%) |
| --- | --- |
| O=C(OC1CCCC1)c1ccccc1Cl | 108 |
| O=[N+]([O-])c1ccc2[nH]c(=S)n(/C=C(/c3ccc(Cl)cc3Cl)S(=O)(=O)Cc3ccc(Cl)cc3Cl)c2c1 | 99.1 |
| S=CN1CCCCC1 | 115 |
| C=C(OC(C)=O)c1ccccc1 | 96 |
| O=C(O)c1c[nH]c2ccccc2c1=O | 92.3 |
| Cn1/c(=N\N=C\c2ccccc2OCCO)sc2ccccc21 | 104 |
| COc1ccc2c(Cl)cc(NC(=O)Nc3c(C)cccc3C)nc2c1 | -6.49 |
| c1cc(CNCCNCc2ccncc2)ccn1 | 104 |
| Cc1[nH]n(-c2ccccc2)c(=O)c1C=NC(=S)C(N)=S | 96 |

Please examine the following record next.
Q: Which growth value belongs to CCN(C(C)=O)c1ccc([N+](=O)[O-])cc1 ?
Ans: 109

###

# maps each entry to its growth
- System: M14 melanoma
- EXPERIMENTAL DETAILS: NCI-60 one-dose screen, 48 h (100 = growth as untreated, 0 = no growth, -100 = all killed)
- ASSAY CONTEXT: 10 µM unless noted
About 83,000 compounds went through this panel and 20% of them were active in at least one assay; those are over-represented in the sample as a whole.
Kindly provide the numeric value in % only, without the unit symbol.

| COMPOUND | TEST TARGET | growth [%] |
| --- | --- | --- |
| C=C(OC(C)=O)c1ccccc1 | M14 melanoma | 97.3 |
| Cc1ccc(O)c(N)c1 | M14 melanoma | 108 |
| O=C(O)Cc1ccccn1 | M14 melanoma | 112 |
| Nc1cc2ccccc2c(O)c1O | M14 melanoma | 93.3 |
| CC(C)N(CCCC#N)C(C)C | M14 melanoma | 107 |
| N=C(N)c1nn(C2OC(CO)C(O)C2O)c2nc[nH]c(=O)c12 (centres undefined) | M14 melanoma | -54.8 |

Q: Which growth value belongs to O=[N+]([O-])c1ccc2[nH]c(=S)n(/C=C(/c3ccc(Cl)cc3Cl)S(=O)(=O)Cc3ccc(Cl)cc3Cl)c2c1 ?
Ans: 93.6

Q: Which growth value belongs to CCOC(=O)c1ccc(C(C)(C)C)cc1 ?
Ans: 104

Q: Which growth value belongs to O=S1(=O)c2ccccc2Oc2ccccc21 ?
Ans: 101

Q: Which growth value belongs to CCC(C)C1CCC(O)CC1 (centres undefined) ?
Ans: 99

Q: Which growth value belongs to Cc1[nH]n(-c2ccccc2)c(=O)c1C=NC(=S)C(N)=S ?
Ans: 103
